Values from ChEMBL document CHEMBL1201862

// GI50 lookup, one value per entry
- Test system: MCF7
- Protocol text: NCI tumour cell line growth inhibition, 48 h
Calls of active or inactive are those of the source. Cut-off read from the data, not from the text of the source: active = GI50 up to about 1.1 µM and inactive = higher.
Measured metric: GI50

COP(=O)(OC)c1ccc(NCc2cc(O)ccc2O)cc1: 28.8 µM (inactive)
CC(=O)OCC1OC(n2c(N)c(C#N)c(-c3cccc(Cl)c3)c(C#N)c2=S)C(OC(C)=O)C(OC(C)=O)C1OC(C)=O (stereo not given): 21.5 µM (inactive)
C=C(Br)C(C)(Br)CCC(Br)C(C)(C)Cl (stereo not given): 14.5 µM (inactive)
N#CCCN(CCCN(CCCN(C(=O)Nc1ccccc1)c1ccccc1)C(=O)Nc1ccccc1)C(=O)Nc1ccccc1: > 8.75 µM (inactive)
CCOP(=O)(/C=C\n1cc(C)c(=O)[nH]c1=O)OCC: > 100 µM (inactive)

###

- System: EKVX
- Protocol text: NCI tumour cell line growth inhibition, 48 h
Activity calls are given as the source filed them. Rule as the data show it: active = GI50 up to about 1.1 µM and inactive = higher.
Measured metric: GI50

COc1ccccc1Cc1nc(-c2ccccc2)nn(C2OC(COC(C)=O)C(OC(C)=O)C(OC(C)=O)C2OC(C)=O)c1=S (stereo not drawn): 25.1 µM (inactive)
CN(CCNC(=O)c1cn(C)c2c1ccc1ccccc12)CCNC(=O)c1cn(C)c2c1ccc1ccccc12: 2.37 µM (inactive)
C=C1c2ccccc2Oc2nc3nc(N)c(C#N)c(N)c3c(N)c21: 11.9 µM (inactive)
Cc1ccc2nc(N/N=C/c3cccc(C)n3)cc(C)c2c1: 16.6 µM (inactive)
O=C1CC(=O)c2c(O)cc(O)c(c2O)-c2c(ccc(O)c2O)C2=CC(=O)c3c(O)cc(O)c(c3O2)-c2c1ccc(O)c2O.O=C1CC2(O)Oc3c1c(O)cc(O)c3-c1c(ccc(O)c1O)-c1cc(=O)c3c(O)cc(O)c(c3o1)-c1c2ccc(O)c1O: > 50 µM (inactive)
CCOP(=O)(/C=C\n1cc(C)c(=O)[nH]c1=O)OCC: > 100 µM (inactive)
COc1nc(=O)n(COC(CO)CN2C(=O)c3ccccc3C2=O)cc1Cc1cccc(OCc2ccccc2)c1 (stereo not drawn): 33.8 µM (inactive)
COC(=O)C(C(=O)OC)C1CC(=O)c2c(Br)sc(Br)c21 (stereo not drawn): 15.2 µM (inactive)

###

- Test system: UO-31
- Protocol text: NCI tumour cell line growth inhibition, 48 h
The source made the active and inactive calls. No stated cut-off is given here; in the data, active = GI50 up to about 1.1 µM and inactive = higher.
Possible outcomes: 1.0 (active), 0.0 (inactive)

Brc1ccc(C[N+]23CN4CN(CN(C4)C2)C3)cc1: 0.0
CN1c2ccccc2N(C)C2C1N(C)c1ccccc1N2C (stereo unspecified): 0.0
CC(C)(CN1CCCCC1)C(=O)/C=C/c1ccc(Cl)c(Cl)c1: 0.0
Cn1c(=O)cc(Nc2ccc(N)cc2)[nH]c1=O: 0.0
O=C1Oc2ccccc2C(=O)/C1=C/N1C(=O)CNC1=S: 0.0
FC(F)(Sc1ccccc1)c1nc2ccccc2o1: 0.0
CCCCCCCCCCCCCC(=O)CC(=O)c1c(O)cccc1O: 0.0
OC(c1cc(C(F)(F)F)nc2c(Cl)cc(Cl)cc12)C1CCCCN1 (stereo unspecified): 1.0
CCOC(=O)/C=C(\C(=O)OCC)n1ccc(N)nc1=O: 0.0
Cc1nn(-c2ccccc2)c(C)c1/C=N/N=C1\S/C(=C\c2ccc(Cl)cc2)C(=O)N1c1ccccc1: 0.0
Cc1cc2c(c(C#N)c1C)NC(=O)C(CC(=O)O)C2=O (stereo unspecified): 0.0
